Reference source for all entries: patent US12275729B2

I'd be grateful if you could share measured IC50 for these entries.
testedOn: IDO1 (Homo sapiens)
assayOverview: IDO1 Human Whole Blood Assay
Type: cell-based
Set-up: Human whole blood was drawn in sodium heparin coated tubes from healthy internal donors; from tissue; host or cells: human whole blood from healthy donors, stimulated with LPS and IFNγ
testParameters: LPS and IFNγ stimulated
Give the quantity in nM, number only.

Task item: For Cc1nccc(N2CCCc3nc(C(C)(C)C(=O)Nc4ccc(Cl)c(F)c4)ccc32)n1 [Example 391] , what is its reported IC50?
Reply: 101

Task item: For CC(NC(=O)c1ccc(F)cc1)c1ccc2c(n1)CCCN2C(=O)c1ccccc1Cl (stereo not shown) [Example 141] , what is its reported IC50?
Reply: 26

Task item: For C[C@H](NC(=O)c1ccc(Cl)cc1)c1ccc2c(n1)OCCN2C(=O)c1cccc(Cl)c1 (single isomer, unassigned) [Example 254] , what is its reported IC50?
Reply: 263

Task item: For C[C@H](C(=O)Nc1ccc(F)cc1)c1ccc2c(c1)CCCN2C(=O)[C@H]1CCCCO1 (single isomer, unassigned) [Example 87] , what is its reported IC50?
Reply: 22

Task item: For C[C@@H](C(=O)Nc1ccc(Cl)cc1)c1ccc2c(c1)CCCN2C(=O)c1cccc(Cl)c1 (single isomer, unassigned) [Example 57] , what is its reported IC50?
Reply: 51

Task item: For CC(NC(=O)c1ccc(F)cc1)c1ccc2c(n1)CCCN2C(=O)c1cc(C(F)F)ccn1 (stereo not shown) [Example 279] , what is its reported IC50?
Reply: 135

Task item: For Cc1cc(C)n(COC(=O)N2CCCc3nc(C(C)NC(=O)c4ccc(F)cc4)ccc32)n1 (stereo not shown) [Example 320] , what is its reported IC50?
Reply: 1690

* * *

testedOn: IDO1 (Homo sapiens, UniProt P14902)
Sequence (P14902 whole entry): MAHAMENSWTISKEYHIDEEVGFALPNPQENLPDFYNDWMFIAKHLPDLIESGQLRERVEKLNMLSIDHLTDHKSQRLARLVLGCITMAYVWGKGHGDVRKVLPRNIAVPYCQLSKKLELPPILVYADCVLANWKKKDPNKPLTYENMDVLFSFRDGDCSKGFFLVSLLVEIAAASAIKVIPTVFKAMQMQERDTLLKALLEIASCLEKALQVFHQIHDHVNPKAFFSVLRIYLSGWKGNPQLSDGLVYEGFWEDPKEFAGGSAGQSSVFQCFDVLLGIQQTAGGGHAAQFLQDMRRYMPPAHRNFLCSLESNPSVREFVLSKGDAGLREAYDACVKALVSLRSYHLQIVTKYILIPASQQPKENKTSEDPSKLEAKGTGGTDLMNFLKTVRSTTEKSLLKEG
assayOverview: IDO1 Cellular Assay in HeLa Cells Stimulated with IFNγ
Type: cell-based
testParameters: about 48 hours, read-out: Hela IC50
pIC50: −log10 of the molar value.
Parameter threshold = 8. Response is class 1 when pIC50 meets or exceeds it, else class 0.

Task item: Entry "O=C(Nc1ccc(Cl)cc1)C1(c2ccc3c(n2)CCCN3c2cccc(C(F)(F)F)n2)CCC1" : is its pIC50 no less than 8?
Reply: class 1

Task item: Entry Cc1nccc(N2CCCc3nc(C4(NC(=O)c5ccc(Cl)cc5)CC4)ccc32)n1 [Example 249] : is its pIC50 no less than 8?
Reply: class 1

Task item: Entry "COC(=O)N1CCCc2nc(C3(C(=O)Nc4ccc(F)cc4)CCC3)ccc21" : is its pIC50 no less than 8?
Reply: class 1

Task item: Entry "Cc1ccnc(C(=O)N2CCCc3nc(C4(C(=O)Nc5ccc(Cl)cc5)COC4)ccc32)n1" : is its pIC50 no less than 8?
Reply: class 1

Task item: Entry "Cc1noc(C(=O)NCc2ccc3c(c2)CCCN3C(=O)c2cccc(Cl)c2)n1" : is its pIC50 no less than 8?
Reply: class 0

Task item: Entry "O=C(NC1(c2ccc3c(n2)CCCN3C(=O)C2CC2)CC1)c1ccc(F)cc1" : is its pIC50 no less than 8?
Reply: class 0

Task item: Entry "CC(C)(C(=O)Nc1ccc(F)cc1)c1ccc2c(n1)CCCN2C(=O)c1cccc(Cl)c1" : is its pIC50 no less than 8?
Reply: class 1

Task item: Entry "CC(C)CC(=O)N1CCCc2cc(CNC(=O)c3ccc(I)cc3)ccc21" : is its pIC50 no less than 8?
Reply: class 0

Task item: Entry CC(NC(=O)c1ccc(F)cc1)c1ccc2c(c1)CCCN2C(CO)c1cccc(Cl)c1 (single isomer, unassigned) [Example 94] : is its pIC50 no less than 8?
Reply: class 0

Task item: Entry O=C(C1CCO1)N1CCCc2nc(C3(C(=O)Nc4ccc(F)cc4)CCC3)ccc21 (stereo not shown) : is its pIC50 no less than 8?
Reply: class 1

Task item: Entry CC(C(=O)Nc1ccc(F)cc1)c1ccc2c(c1)CCCN2C(=O)c1cnco1 (stereo not shown) : is its pIC50 no less than 8?
Reply: class 0

Task item: Entry CC(NC(=O)c1ccc(F)cc1)c1ccc2c(n1)CCCN2C(=O)C1(C)CCCCO1 (stereo in doubt) [Example 140] : is its pIC50 no less than 8?
Reply: class 0
